Test system: AncSZ;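 further: 11-residue human phosphosite peptides and single-mutation variants displayed on the E. coli surface, counted by deep sequencing, each peptide's frequency after selection divided by its frequency in the unselected input library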;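 further: frequency after pTyr selection over input frequency; kinase dosed for 20-30% of maximal phosphorylation in three min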
Test: phosphorylation enrichment, bacterial display (enrichment ratio); higher = better substrate or ligand; peptides without Tyr show the background
MEASUREMENT LABEL: phosphorylation enrichment

{"ITEM SEQUENCE": "HLMLQYDAVVN [SLC25A32_Y152_R147H]", "OBS VALUE": 1.75}
{"ITEM SEQUENCE": "LLLLFYVVRFC [MPZ_Y177_YF]", "OBS VALUE": 0.918}
{"ITEM SEQUENCE": "IEPVIYVVQRR [ANOS1_Y217]", "OBS VALUE": 1.37}
{"ITEM SEQUENCE": "MAYDRYAAICS [OR8H2_Y123_H120Y]", "OBS VALUE": 0.94}
{"ITEM SEQUENCE": "SGASGYSATST [CERT1_Y143]", "OBS VALUE": 0.594}
{"ITEM SEQUENCE": "STFVPCEIKVQ [L1CAM_Y784_Y784C]", "OBS VALUE": 1.3}
{"ITEM SEQUENCE": "KAIMIYVSSFF [ACTN4_Y260_T259I_YF]", "OBS VALUE": 0.945}
{"ITEM SEQUENCE": "QPSALYEDRYL [ASS1_Y83_S79P]", "OBS VALUE": 0.93}
{"ITEM SEQUENCE": "PAQAAYQKVVA [HBB_Y131_V127A]", "OBS VALUE": 0.647}
{"ITEM SEQUENCE": "RCLKDYGEFEV [GINS1_Y156]", "OBS VALUE": 1.1}
{"ITEM SEQUENCE": "KREPQYSSHSS [SIPA1L3_Y1265_G1261R]", "OBS VALUE": 0.559}
{"ITEM SEQUENCE": "QCQLKYSETPF [SIX6OS1_Y129_Y125C]", "OBS VALUE": 1.24}
{"ITEM SEQUENCE": "CTTIHYNFKCN [TP53_Y234_M237K_YF]", "OBS VALUE": 0.795}
